Cited source: patent US20260083851A1

target: IgG; assay: IgG SPR binding; settings: second table, read-out: IgG KD
Endpoint Label: Kd

CC(C)CC1NC(=O)C(Cc2cnc[nH]2)NC(=O)C(Cc2c[nH]c3ccccc23)NC(=O)C(C)NC(=O)C2CSSCC(NC(=O)C(Cc3c[nH]c4ccccc34)NC(=O)C(C(C)C)NC(=O)C(CC(C)C)NC(=O)C(CCC(=O)O)NC(=O)CNC1=O)C(=O)NC(C(C)O)C(=O)N1CCCC1C(=O)N1CC(NC(=O)C3CCC(C(=O)NCC4OCC(Nc5cncc(C(F)(F)F)n5)C(O)C4O)CC3)CC1C(=O)NC(CC(=O)O)C(=O)N2 (stereo not drawn) [compound 45]: < 100 nM
CC(C)CC1NC(=O)C(Cc2cnc[nH]2)NC(=O)C(Cc2c[nH]c3ccccc23)NC(=O)C(C)NC(=O)C2CSSCC(NC(=O)C(Cc3c[nH]c4ccccc34)NC(=O)C(C(C)C)NC(=O)C(CC(C)C)NC(=O)C(CCC(=O)O)NC(=O)CNC1=O)C(=O)NC(C(C)O)C(=O)N1CCCC1C(=O)N1CC(NC(=O)c3ccc(N4CCC(CN5CCN(CC6OCC(Nc7cncc(C(F)(F)F)n7)C(O)C6O)CC5)CC4)cc3)CC1C(=O)NC(CC(=O)O)C(=O)N2 (stereo not drawn) [compound 98]: < 100 nM

Form: molecule = CC(C)CC1NC(=O)C(Cc2cnc[nH]2)NC(=O)C(Cc2c[nH]c3ccccc23)NC(=O)C(C)NC(=O)C2CSSCC(NC(=O)C(Cc3c[nH]c4ccc(Cl)cc34)NC(=O)C(C(C)C)NC(=O)C(CC(C)C)NC(=O)C(CCC(=O)O)NC(=O)CNC1=O)C(=O)NC(C(C)O)C(=O)N1CCCC1C(=O)N1CC(N)CC1C(=O)NC(CC(=O)O)C(=O)N2 (stereo not drawn) [compound 62] ; Kd = < 100 nM
